system: biotinyl-Leu-oxazolone; experiment: self-aminoacylation, catalytic enhancement (BLO) (fold over background); higher = more active; k-Seq, kA / k0A0; sequences stand for … in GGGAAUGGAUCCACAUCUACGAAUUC…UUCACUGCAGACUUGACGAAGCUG
Variants at the floor of the assay were thinned out.
parameterMeasured: self-aminoacylation
Would you mind answering with just the numeric figure?

// solved cases for self-aminoacylation follow
INSERT INTO results (biopolymersequence, observedvalue) VALUES
  ('AUUAACCUGGUCAUCGAGGGA [Fam2.1 aminoacylation ribozyme variant]', 1.28),
  ('AUUACCCUGCUCAUCGACUGA [Fam2.1 aminoacylation ribozyme variant]', 0.475),
  ('AAGGUUGCUAAUAGUCGCUAG [Fam3.1 aminoacylation ribozyme variant]', 1.19),
  ('AUACACCUAGGACAUCGGGUG [Fam2.2 aminoacylation ribozyme variant]', 2.82),
  ('AUUCACCGACGUCAUCGGGUG [Fam2.2 aminoacylation ribozyme variant]', 12.9),
  ('AUGACCCUGGUCAUCGAGGGA [Fam2.1 aminoacylation ribozyme variant]', 3.03);

**Q:** Request the reported self-aminoacylation associated with AAGGUUGCUAAUUGUCGCAAG [Fam3.1 aminoacylation ribozyme variant]
**A:** 1.14

**Q:** Proceed to AUUACCCUGCUCAACGAGUGA [Fam2.1 aminoacylation ribozyme variant]
**A:** 5.59

**Q:** Proceed to CCACACUUCAAGCAAUCGGGA [Fam1B.1 aminoacylation ribozyme variant]
**A:** 1.04

---

Reported self-aminoacylation values are given for each entry in this list.
test system: biotinyl-Trp-oxazolone; assay: self-aminoacylation, catalytic enhancement (BWO) (fold over background); higher = more active; k-Seq, kA / k0A0; sequences stand for … in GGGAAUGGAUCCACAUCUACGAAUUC…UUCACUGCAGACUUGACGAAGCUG
Variants at the floor of the assay were thinned out.
Would you mind answering with just the numeric figure?

// solved cases for self-aminoacylation follow
INSERT INTO results (biopolymersequence, observedvalue) VALUES
  ('CUAGUUCAAACAAUCAGUCUG [Fam1A.1 aminoacylation ribozyme variant]', 2.15),
  ('AUUCAUCUAGGCCAUCGGGUG [Fam2.2 aminoacylation ribozyme variant]', 3),
  ('UUUACCCUGUUCAUCGAGUGA [Fam2.1 aminoacylation ribozyme variant]', 5.71),
  ('AUUACCCGGGUCAUCUAGUGA [Fam2.1 aminoacylation ribozyme variant]', 11.2),
  ('AUGCACCUAGGUCAUUGGGUG [Fam2.2 aminoacylation ribozyme variant]', 2.72);

**Q:** Request the reported self-aminoacylation associated with ACUCACCUAGGUGAUCGGGUG [Fam2.2 aminoacylation ribozyme variant]
**A:** 8.44

**Q:** Proceed to CCACCUCAAACAAUCGGUCUG [Fam1A.1 aminoacylation ribozyme variant]
**A:** 4.25

**Q:** Proceed to CUACUUGAAACAAACGGUCUG [Fam1A.1 aminoacylation ribozyme variant]
**A:** 1.03

**Q:** Proceed to CCACAAUUCAAUCAAUCGGUC [Fam1B.1 aminoacylation ribozyme variant]
**A:** 5.08

**Q:** Proceed to CCAAACUUGAAGCAAUCGGUC [Fam1B.1 aminoacylation ribozyme variant]
**A:** 0.693

**Q:** Proceed to CCAAACUUCAAGCAAUCGGAC [Fam1B.1 aminoacylation ribozyme variant]
**A:** 0.602

**Q:** Proceed to AUUAACCUAGGUUAUCGGGUG [Fam2.2 aminoacylation ribozyme variant]
**A:** 2.84

**Q:** Proceed to UCACACUUCAAGCAGUCGGUC [Fam1B.1 aminoacylation ribozyme variant]
**A:** 0.901

**Q:** Proceed to AUUCAGCUAGGUCAUCCGGUG [Fam2.2 aminoacylation ribozyme variant]
**A:** 8.08

Taken from the supplement of paper PMC9233669.
